- assay target: UniProtKB O75908
- Sequence (O75908 whole entry): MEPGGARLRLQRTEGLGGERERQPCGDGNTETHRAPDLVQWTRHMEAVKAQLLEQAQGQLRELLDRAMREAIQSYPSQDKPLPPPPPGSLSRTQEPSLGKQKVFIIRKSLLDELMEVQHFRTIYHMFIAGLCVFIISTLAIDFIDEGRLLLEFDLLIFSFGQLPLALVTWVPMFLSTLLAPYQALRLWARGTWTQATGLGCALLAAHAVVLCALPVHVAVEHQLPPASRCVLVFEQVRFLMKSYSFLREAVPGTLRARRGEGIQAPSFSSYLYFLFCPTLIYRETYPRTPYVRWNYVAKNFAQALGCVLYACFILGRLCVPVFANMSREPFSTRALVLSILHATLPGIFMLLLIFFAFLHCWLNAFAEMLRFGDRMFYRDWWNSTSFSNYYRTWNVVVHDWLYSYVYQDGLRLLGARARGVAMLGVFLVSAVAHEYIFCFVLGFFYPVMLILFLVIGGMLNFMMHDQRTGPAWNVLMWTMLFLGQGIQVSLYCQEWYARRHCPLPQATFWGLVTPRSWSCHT
assay endpoint: IC50 (µM)

compound: COc1ccc(C(O)C(C)Oc2ccc([C@H]3O[C@H](c4ccc(OC(C)C(O)c5ccc(OC)c(OC)c5)c(OC)c4)[C@H](C)[C@H]3C)cc2OC)cc1OC (stereo partly specified)
measurement unit: µM
result: 39
